# systemTested: T1, human MAdCAM expressed on cells (human, UniProt Q13477 19-382)
# T1 construct: whole, on cells; also called MADCAM1
# T1 sequence (looked up): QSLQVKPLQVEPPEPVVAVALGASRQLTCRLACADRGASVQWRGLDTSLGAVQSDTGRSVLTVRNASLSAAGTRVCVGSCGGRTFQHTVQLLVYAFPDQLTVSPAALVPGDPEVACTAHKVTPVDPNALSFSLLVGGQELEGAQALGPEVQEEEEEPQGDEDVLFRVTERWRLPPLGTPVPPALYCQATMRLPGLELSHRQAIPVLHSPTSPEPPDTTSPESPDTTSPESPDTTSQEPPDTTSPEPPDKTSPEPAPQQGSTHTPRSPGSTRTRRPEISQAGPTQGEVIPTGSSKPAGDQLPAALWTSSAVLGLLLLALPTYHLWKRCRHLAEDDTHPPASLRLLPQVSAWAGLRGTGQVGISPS
# methodNotes: cell binding
reportedProperty: binding result

INSERT INTO assay_data (binder, reportedproperty, observedvalue) VALUES
  ('MAdCAM antibody Clone ID 60 of Table 6 (scFv) (scFv) scFv: EVQLLESGGGLVQPGGSLRLSCAASGFTFDDYTMHWVRQAPGKGLEWVSDISGSGGSTYYADSVKGRFTISRDNSKNTLYLQMNSLRAEDTAVYYCAKDVVVAGTPLHFDYWGQGTLVTVSSGGGGSGGGGSGGGGSGGGGSDIQMTQSPSSLSASVGDRVTITCQASQDISNYLNWYQQKPGKAPKLLIYAASYLQSGVPSRFSGSGSGTDFTLTISSLQPEDFATYYCQQAHNYPITFGQGTRLEIK', 'binding result', 'binds'),
  ('MAdCAM antibody Clone ID 52 of Table 6 (scFv) (scFv) scFv: EVQLLESGGGLVQPGGSLRLSCAASGFTFSNSDMNWVRQAPGKGLEWVAHIWNDGSQKYYADSVKGRFTISRDNSKNTLYLQMNSLRAEDTAVYYCARDRTDPGYSSAMDVWGQGTTVTVSSGGGGSGGGGSGGGGSGGGGSDIQMTQSPSSLSASVGDRVTITCRASQDIRNYLGWYQQKPGKAPKLLIYDASSLETGVPSRFSGSGSGTDFTLTISSLQPEDFATYYCQQATSLPLTFGGGTKVEIK', 'binding result', 'binds'),
  ('MAdCAM antibody Clone ID 46 of Table 6 (scFv) (scFv) scFv: EVQLLESGGGLVQPGGSLRLSCAASGFSVSSNYMSWVRQAPGKGLEWVAGISYDGSSKPYADSVKGRFTISRDNSKNTLYLQMNSLRAEDTAVYYCARSRGIAARPLQHWGQGTLVTVSSGGGGSGGGGSGGGGSGGGGSDIVMTQSPDSLAVSLGERATINCKSSQSVLYSSNNKNYLAWYQQKPGQPPKLLIYQASTRQSGVPDRFSGSGSGTDFTLTISSLQAEDVAVYYCHQYYGHPPTFGGGTKVEIK', 'binding result', 'binds');
